Entries and their melting point
Assay Endpoint: melting point

>>> df
                                   compound     endpoint_value
0  Cc1ccc(COC(=O)C[C@H](N)C(=O)O)cc1 [Compound 11a]  228.1 to 229.6 °C
1  N[C@@H](CC(=O)OCc1ccc(F)cc1)C(=O)O [Compound 11b]  227.6 to 230.2 °C
2  O=C(O)C[C@H](NC(=O)OCC1c2ccccc2-c2ccccc21)C(=O)NCCO [Compound 5]  113.6 to 115.1 °C
3  Cc1ccc(COC(=O)[C@@H](N)CC(=O)O)cc1 [Compound 11d]  205.1 to 207.3 °C
4  N[C@@H](CC(=O)OCc1ccc([N+](=O)[O-])cc1)C(=O)O [Compound 11c]  207.2 to 209.5 °C
5  Cc1cc(=O)n2c(CNC(=O)c3cccc(F)c3F)csc2n1 [Compound 28a]    218 to 220.2 °C

###

Below, each entry is listed alongside its reported relative fluorescence unit (RFU) of COL1A1 promotor.
- Tested on: COL1A1 promoter
- Procedure Text: COL1A1 promoter luciferase reporter inhibition assay in LX-2 cells
- Assay type: cell-based, human
- Particulars: LX-2 cells, mean ± SD, n = 3; Control 124874.7 ± 10750.9
Where a SMILES comes first, the peptide text is derived from it.
Assay Endpoint: relative fluorescence unit (RFU) of COL1A1 promotor

                                    molecule  endpoint_value
 0  Cc1cc(=O)n2c(COC(=O)C[C@H](N)C(=O)O)csc2n1 [Compound 31]        106608.6
 1  COC(=O)[C@H]1C[C@H](Oc2cc(Cl)nn3c(-c4ccc(OC)c(OC)c4)cnc23)CN1C(=O)OC(C)(C)C [Compound 41]         41555.6
 2  Cc1cc(=O)n2c(CC(=O)N[C@@H](CC(=O)O)C(=O)O)csc2n1 [Compound 35]        161478.3
 3  N[C@@H](CC(=O)O)C(=O)OCc1ccc(F)cc1 [Compound 11e]         89998.6
 4  C[C@H](N)C(=O)N[C@@H](CC(=O)O)C(=O)O [Compound 8a, L-alanyl-L-aspartic acid] (H-Ala-Asp-OH)         63265.3
 5  O=C(O)C[C@H](NC(=O)OCC1c2ccccc2-c2ccccc21)C(=O)NCCO [Compound 5]         94919.5
 6  N[C@@H](CC(=O)Nc1nc(CO)cs1)C(=O)O [Compound 4a]        106237.2
 7  Cc1oc(COC(=O)C[C@H](N)C(=O)O)cc(=O)c1O [Compound 23b]         81660.6
 8  COc1ccc(-c2cnc3c(O[C@@H]4CN[C@@H](C(=O)O)C4)cc(C)nn23)cc1OC [Compound 45]         37918.9
 9  Cc1cc(=O)n2c(CNc3ccccn3)csc2n1 [Compound 32a]         65321.0
10  CNC(=O)C[C@H](N)C(=O)O [Compound 4c, N^4-methyl-L-asparagine]         80485.7

###

- System: COL1A1 promoter
- Procedure Text: COL1A1 promoter luciferase reporter inhibition assay in LX-2 cells;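 further: Anti-fibrotic screen: luciferase reporter driven by the COL1A1 promoter in human hepatic stellate LX-2 cells, compounds applied in complete medium in 96-well plates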
- Assay type: cell-based, human
- Particulars: LX-2 cells, mean ± SD, n = 3; Control 124874.7 ± 10750.9
Assay Endpoint: relative fluorescence unit (RFU) of COL1A1 promotor

Molecule	Endpoint Value
N[C@@H](CC(=O)O)C(=O)O [L-Asp, L-aspartic acid, reference compound]	110724.3
Cn1cc(O)c(=O)cc1CC(N)C(=O)O (centres unmarked) [Compound 20b]	94881.8
Cc1ccc(COC(=O)[C@@H](N)CC(=O)O)cc1 [Compound 11d]	100087.5
Cc1ccc(COC(=O)C[C@H](N)C(=O)O)cc1 [Compound 11a]	110620.0
N[C@@H](CC(=O)OCc1cc(=O)n2ccsc2n1)C(=O)O [Compound 37]	114307.8
CC(C)(C)OC(=O)C[C@H](NC(=O)OCC1c2ccccc2-c2ccccc21)C(=O)NCCO [Compound 3]	23056.9
Cc1cc(=O)n2c(CNC(=O)c3cccc(F)c3F)csc2n1 [Compound 28a]	70040.5
N[C@@H](CC(=O)OCc1ccc(F)cc1)C(=O)O [Compound 11b]	130725.3
N[C@@H](CC(=O)Nc1nccs1)C(=O)O [Compound 4b, N^4-(thiazol-2-yl)-L-asparagine]	85934.6
O=C(O[C@@H]1Cc2c(O)cc(O)cc2O[C@@H]1c1cc(O)c(O)c(O)c1)c1cc(O)c(O)c(O)c1 [EGCG, epigallocatechin gallate, reference compound]	79340.1
N[C@@H](CC(=O)O)C(=O)OCc1ccc([N+](=O)[O-])cc1 [Compound 11f]	99123.6
CC[C@@H]1C2C[C@H](O)CC[C@]2(C)C2CC[C@@]3(C)C(CCC3[C@H](C)CCC(=O)N[C@@H](CC(=O)O)C(=O)O)C2[C@@H]1O (some centres unmarked) [Compound 9]	3188.3
Cc1cc(=O)n2c(CN[C@@H](CC(=O)O)C(=O)O)csc2n1 [Compound 33]	116893.2
N[C@@H](CC(=O)OCc1cc(=O)c(O)co1)C(=O)O [Compound 23a]	90057.5
CN[C@@H](CCC(=O)O)C(=O)O [Compound 1, Methyl-L-glutamic acid]	143674.9
COC(=O)[C@H]1C[C@H](Oc2cc(C)nn3c(-c4ccc(OC)c(OC)c4)cnc23)CN1 [Compound 43]	77132.5
NC(Cc1cc(=O)c(O)co1)C(=O)O (centres unmarked) [Compound 20a]	102508.7
